Every entry's value here was drawn from patent US4883797A.

- Tested on: arterial pressure
- assay.name: Mean arterial pressure determined simultaneously with cerebral and carotid flows, anesthetized dogs
- Assay type: in vivo
- cond: endovenous, 5 mg/kg, variation over mean values before testing
metric: Arterial pressure Decrease (%)

{"compound": "c1ccc(C(c2ccccc2)N2CCN(CCCC3(c4ccccc4)OCCO3)CC2)cc1", "unit.label": "%", "recorded.value": 35.0}
{"compound": "C=CCN1CCN(C(c2ccccc2)c2ccccc2)CC1 [Aligeron 2HCI, reference compound]", "unit.label": "%", "recorded.value": 36.0}
{"compound": "O=C(CCCN1CCN(C(c2ccccc2)c2ccccc2)CC1)c1ccccc1", "unit.label": "%", "recorded.value": 50.0}
{"compound": "O=C1NCC(CN2CCN(C(c3ccccc3)c3ccccc3)CC2)O1 (centres unmarked)", "unit.label": "%", "recorded.value": 45.5}
{"compound": "Cl.Cl.c1ccc(C(c2ccccc2)N2CCN(CC3CC3)CC2)cc1", "unit.label": "%", "recorded.value": 30.0}
{"compound": "C(=C\\c1ccccc1)/CN1CCN(C(c2ccccc2)c2ccccc2)CC1 [Cinnarizine 2HCI, reference compound]", "unit.label": "%", "recorded.value": 43.0}
{"compound": "C=C(CN1CCCCC1)CN1CCN(C(c2ccccc2)c2ccccc2)CC1", "unit.label": "%", "recorded.value": 58.0}
{"compound": "CCOC(=O)C=CCN1CCN(C(c2ccccc2)c2ccccc2)CC1", "unit.label": "%", "recorded.value": 27.3}
